- assayed_system: human thyroid receptor alpha ligand-binding domain (LBD) (Homo sapiens)
- Sequence (P10827 163-410 isoform P10827-2 limits assumed, other chains not shown): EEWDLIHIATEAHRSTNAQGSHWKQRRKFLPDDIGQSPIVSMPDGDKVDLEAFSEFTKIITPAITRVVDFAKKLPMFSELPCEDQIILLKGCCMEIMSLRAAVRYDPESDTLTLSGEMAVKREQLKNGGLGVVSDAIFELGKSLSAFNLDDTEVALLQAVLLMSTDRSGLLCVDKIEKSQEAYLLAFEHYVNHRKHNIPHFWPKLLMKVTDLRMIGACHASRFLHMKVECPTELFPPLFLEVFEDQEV
- assay_summary: TR-FRET thyroid receptor alpha coactivator assay (THR biochemical assay, Assay 1)
- assay_setup: Table 4, THR-alpha, read-out: Activity category Assay 1 (EC50, THR-alpha agonist activity)
metric_name: EC50

- Nc1nn(-c2cc(Cl)c(Oc3cc(C4CCc5ccccc54)c(=O)[nH]n3)c(Cl)c2)c(=O)[nH]c1=O (stereo not shown): 50 to 250 nM
- Nc1nn(-c2cc(Cl)c(Oc3ccc4c(c3)C3(CC3)C(=O)N4)c(Cl)c2)c(=O)[nH]c1=O: < 50 nM
- Nc1nn(-c2cc(Cl)c(Oc3ccc4c(c3)C3(CCCCC3)C(=O)N4)c(Cl)c2)c(=O)[nH]c1=O: < 50 nM

Q: Identify EC50 associated with the molecule C[C@H]1C[C@H](c2cc(Oc3c(Cl)cc(-n4nc(N)c(=O)[nH]c4=O)cc3Cl)n[nH]c2=O)C1 (single isomer, unassigned)
Ans: 250 to 1000 nM

Q: Identify EC50 associated with the molecule Cc1cc(-n2nc(C#N)c(=O)[nH]c2=O)cc(C)c1Oc1ccc2[nH]cc(C(C)C)c2c1
Ans: < 50 nM

Q: Identify EC50 associated with the molecule Cc1cccc(-c2cc(Oc3c(Cl)cc(-n4nc(N)c(=O)[nH]c4=O)cc3Cl)n[nH]c2=O)c1F
Ans: 250 to 1000 nM

Q: Identify EC50 associated with the molecule Nc1nn(-c2cc(Cl)c(Oc3cc(-c4ccn5cncc5c4)c(=O)[nH]n3)c(Cl)c2)c(=O)[nH]c1=O
Ans: > 25000 nM

Data provenance is patent US12180192B2.
